- Assay target: SARS-CoV-2 spike protein, WA1/2020, borne on lentiviral pseudovirus (SARS-CoV-2, WA01/2020 strain, UniProt P0DTC2 14-1273)
- Experimental protocol: cell-based or functional assay
Property: Pseudo Neut, WA1/2020 IC50 (pM)
Provide only the numeric value, understood in pM.

Measured Pseudo Neut, WA1/2020 IC50 (pM), antibody 2729 (antibody, V domains shown) VH: QVTLKESGPVLVKPTETLTLTCTVSGFSLSNARMGVSWIRQPPGKALEWLAHIFSNDEKSYSTYLKSRLTISKDSSKSQVVLTMTIMDPVDTATYYCARTAGRYSSRWGHYYYYMDVWGKGTTVTVSS VL: NFMLTQPHSVSESPGKTVTISCTGSNGSIASNFMQWYQQRPGSAPTIVIYEDNQRPSGVPDRFSGSIDGSSNSASLTISGLKTEDEADYYCQSYDSSDSDLGVFGGGTKLTVL : 584

Measured Pseudo Neut, WA1/2020 IC50 (pM), antibody 1859 (antibody, V domains shown) VH: EVQLVESGGGLVKPGGSLRLSCAASGFSFNTYTMNWVRQAPGKGLEWVSYISSSSSYKYYSDSVKGRFSVSRDNAKKSLYLQMNGLRAEDTAVYYCARDGYCPNGVCTYYGMDVWGQGTTVTVSL VL: EIVMTQSPATLSVSPGERATLSCRASQSVSSNLAWYQQKPGQAPRLLIYGASTRATGIPARFSGSGSGTEFTLTISGLQSEDFAVYFCQQYSKWPPAYTFGQGTKLEIK : 889

Measured Pseudo Neut, WA1/2020 IC50 (pM), antibody 2050 (antibody, V domains shown) VH: QVQLVQSGAEVKKPGASVKVPCKVSGYTFTDHFIHWVRQAPGQGLEWMGWISPNSGGRNYTQKFQGRVTLTRDTAITTVHMDLSSLTPDDTAVYYCARDVRWAQLQGGFDLWGQGTMVTVSS VL: QSALTQPASVSGSPGQSITISCTGTSSDVGSYNLVSWYQQHPGKAPKLMIYEVSKRPSGVSNRFSGSKSGNTASLTISGLQADDEADYYCCSYAGDNNFLFGGGTSLTVL : 427

Measured Pseudo Neut, WA1/2020 IC50 (pM), antibody 3091 (antibody, V domains shown) VH: QMQLVQSGPEVKKPGTSVKVSCKASGFTFSSSAVQWVRQARGQGLEWIGWIVVGSGNANYAQKLQERVSITRDMSTSTAYMELSSLRPEDTAVYYCAAPHCSRTICHDGFDMWGQGTMVTVSS VL: EIVLTQSPGTLSLSPGERATLSCRASQSVRSSYLAWYQQKPGQAPRLLMFVASSRATGIPDRFSGSGSGTDFTLTISRLEPEDFAVYYCQQYDTSPWTFGQGTKVEIK : 59

Measured Pseudo Neut, WA1/2020 IC50 (pM), antibody 1871 (antibody, V domains shown) VH: EVQLVESGGGLVKPGGSLRLSCVASGFSFSIYSMNWVRQAPGKGLEWVSYISSSSSYKYYADSVKGRFSVSRDNAKNSLYLQLNGLRAEDTAVYYCARDGYCPKGVCTYYGMDVWGQGTTVTVSA VL: EIVMTQSPATLSVSPGERVTLSCRASQSVRSRLAWFQQKPGQAPRLLIYDASIRATGIPARFSGSGSGTEFTLIISSLQSEDFAVYYCQQYDNWPPAYTFGQGTKLEIK : 440
